Reported values of growth for individual entries
- Tested on: UACC-62 melanoma
- Method Summary: NCI-60 one-dose screen, 48 h (100 = growth as untreated, 0 = no growth, -100 = all killed)
- Condition Label: 10 µM unless noted
About 83,000 compounds went through this panel and 20% of them were active in at least one assay; those are over-represented in the sample as a whole.

Compound	growth / %
CCC1(CC)NC(=O)c2c(c3ccc(Cl)c(Cl)c3n2C)C1C#N (centres undefined)	76.1
N/C(=N\N=C\c1cc2ccccc2[nH]1)N/N=C/c1cc2ccccc2[nH]1	99.2
C=C1C(=O)O[C@H]2[C@H]1CC/C(COC(=O)CCCCCC(=O)OC/C1=C/CC[C@@]3(C)O[C@H]3[C@H]3OC(=O)C(=C)[C@@H]3CC1)=C\CC[C@@]1(C)O[C@@H]21	8.53
O=c1[nH]c2c(s1)CCCC2CN1CCCCC1 (centres undefined)	113
Clc1cc(Cl)cc(N2N=C(c3cccc(Nc4ccncc4)c3)CC2c2ccccc2)c1 (centres undefined)	99
Fc1cc(C2=NNC(c3ccc[nH]3)C2)ccc1-n1ccc(C(F)(F)F)n1 (centres undefined)	81.3
[O-][n+]1ccccc1CCN(O)CCc1cccc[n+]1[O-]	99
COc1c(Cl)cc(Cl)c2ccc(C=C3C(=O)NC(=S)NC3=O)nc12	105
C1=C2CNCC3=Cc4ccc5ccccc5c4OC23Oc2c1ccc1ccccc21	25.6
